test system: L6-myotubes; test: Glucose uptake in differentiated L6-myotubes (Biological Example 2); format: cell-based; details: glucose uptake; compound at 10 μM relative to isoproterenol at 10 μM; read-out: Biological example 2 (GU)
measured-quantity: Emax at 10 µM

// worked examples, Emax at 10 µM included
Prompt line: Fill in: Emax at 10 µM of CC(C)(C)NC[C@H](O)c1ccc(O)cn1 is ___
Response line: 50 to 75%

Prompt line: Fill in: Emax at 10 µM of CCCCNC[C@H](O)c1cccc(O)c1F is ___
Response line: > 75%

Prompt line: Fill in: Emax at 10 µM of CCCC1(CCC)CC[C@H]([C@@H](O)c2cccc(F)c2)N1 is ___
Response line: < 25%

Prompt line: Fill in: Emax at 10 µM of CCC[C@H]1CCC[C@H]([C@H](O)c2cc(F)cc(F)c2)N1 is ___
Response line: 50 to 75%

Prompt line: Fill in: Emax at 10 µM of CC1(C)CCC[C@H]([C@@H](O)c2cccc(O)c2)N1 is ___
Response line: 25 to 50%

Others:
Prompt line: Fill in: Emax at 10 µM of CC12CCC([C@@H](O)c3ccccc3Cl)(CC1)N2 is ___
Response line: > 75%

Prompt line: Fill in: Emax at 10 µM of CCC[C@H]1CCC[C@H]([C@@H](O)c2cc(F)cc(F)c2)N1 is ___
Response line: 25 to 50%

Prompt line: Fill in: Emax at 10 µM of CCCC(C)NCC(O)c1ccc(O)c(Cl)c1 (stereo not shown) is ___
Response line: 25 to 50%

Prompt line: Fill in: Emax at 10 µM of CCCCNC[C@H](O)c1cccc(F)c1 is ___
Response line: 50 to 75%

Prompt line: Fill in: Emax at 10 µM of C[C@H]1CC[C@@H]([C@@H](O)c2cccc(O)c2)N1 (racemic) is ___
Response line: > 75%

====

tested on: L6-myotubes; assay: Glucose uptake in differentiated L6-myotubes (Biological Example 2); assay type: cell-based; settings: glucose uptake in differentiated L6-myotubes; compound at 10 μM, activity relative to isoproterenol at 10 μM; read-out: Biological example 2 (GU)
Catalogue of Emax at 10 µM readings, one per entry.

// worked examples, Emax at 10 µM included
Prompt line: Fill in: Emax at 10 µM of CS(=O)(=O)N[C@H]1CC[C@@H](CNC[C@H](O)c2cccc(F)c2)CC1 is ___
Response line: 50 to 75%

Prompt line: Fill in: Emax at 10 µM of CS(=O)(=O)N(Cc1ccccc1)c1cccc(CC23CCC([C@H](O)c4cccc(F)c4)(CC2)N3)c1 is ___
Response line: 25 to 50%

Prompt line: Fill in: Emax at 10 µM of CC(C)(CC[C@H]1CC[C@H](O)CC1)NC[C@H](O)c1cccc(F)c1 is ___
Response line: 25 to 50%

Prompt line: Fill in: Emax at 10 µM of CC(C)(C[C@H]1CC[C@@H](C(=O)O)CC1)NC[C@H](O)c1cccc(F)c1 is ___
Response line: 25 to 50%

Prompt line: Fill in: Emax at 10 µM of CC12CCC([C@@H](O)c3ccncc3F)(CC1)N2 is ___
Response line: < 25%

Others:
Prompt line: Fill in: Emax at 10 µM of CC(C)(C[C@H]1CC[C@@H](NC(=O)C2CCC2)CC1)NC[C@H](O)c1cccc(F)c1 is ___
Response line: 50 to 75%

Prompt line: Fill in: Emax at 10 µM of O[C@@H](c1cccc(F)c1)C12CCC(C/C=C/c3ccccc3)(CC1)N2 is ___
Response line: < 25%

Prompt line: Fill in: Emax at 10 µM of CC(C)(C[C@H]1CC[C@@H](N)CC1)NC[C@H](O)c1cncc(F)c1 is ___
Response line: 50 to 75%

Prompt line: Fill in: Emax at 10 µM of COc1ccc(C[C@@]2(C)CC[C@H]([C@H](O)c3cccc(F)c3)N2)cc1 is ___
Response line: > 75%

Prompt line: Fill in: Emax at 10 µM of CC1(C)C[C@H]([C@H](O)c2cccc(Cl)c2)N1 is ___
Response line: > 75%

Prompt line: Fill in: Emax at 10 µM of CO[C@H]1CC[C@@H](CCCNC[C@H](O)c2cncc(F)c2)CC1 is ___
Response line: > 75%

====

System: L6-myotubes
Experiment: Measurement of intracellular cAMP levels in differentiated L6-myotubes (Biological Example 3)
Type: cell-based
Conditions: 0.25 h, intracellular cAMP; compound at 10 μM relative to isoproterenol at 10 μM
Protocol: Compounds described in publications referenced and incorporated herein were screened in accordance with the procedures outlined in Biological example 2 and Biological example 3. Differentiated L6-myotubes were serum-starved overnight and stimulated with isoprenaline or the test compound with a final concentration of 1×10^−5 M, for 15 min in stimulation buffer (HBSS supplemented with 1% BSA, 5 mM HEPES and 1 mM IBMX, pH 7.4). […]
Catalogue of Emax at 10 µM readings, one per entry.

// worked examples, Emax at 10 µM included
Prompt line: Give L6-myotubes Emax at 10 µM for CC1(C)CCC([C@H](O)c2ccccc2F)N1 (stereo in doubt)
Response line: 25 to 50%

Prompt line: Give L6-myotubes Emax at 10 µM for CC12CCC([C@H](O)c3cccc(Cl)c3)(CC1)N2
Response line: < 25%

Others:
Prompt line: Give L6-myotubes Emax at 10 µM for CC1(C)CC[C@H]([C@H](O)c2cccc(F)c2)N1
Response line: < 25%

Prompt line: Give L6-myotubes Emax at 10 µM for CCCCNC[C@H](O)c1ccc(F)cc1
Response line: < 25%

Prompt line: Give L6-myotubes Emax at 10 µM for CCCCNCC(O)c1cc(F)c(N)c(F)c1 (stereo not drawn)
Response line: > 75%

Prompt line: Give L6-myotubes Emax at 10 µM for CC1(C)CCC[C@H]([C@H](O)c2cccc(F)c2)N1
Response line: < 25%

Prompt line: Give L6-myotubes Emax at 10 µM for CC(C)(C)NC[C@H](O)c1cccc(N)c1F
Response line: 25 to 50%

====

system: L6-myotubes; assay: Glucose uptake in differentiated L6-myotubes (Biological Example 2); format: cell-based; conditions: glucose uptake in differentiated L6-myotubes; compound at 10 μM, activity relative to isoproterenol at 10 μM; read-out: Biological example 2 (GU)
measured-quantity: Emax at 10 µM

// worked examples, Emax at 10 µM included
Prompt line: Fill in: Emax at 10 µM of CC(C)(C[C@H]1CC[C@@H](C#N)CC1)NC[C@H](O)c1cccc(F)c1 is ___
Response line: > 75%

Prompt line: Fill in: Emax at 10 µM of COc1ccc(CCC23CCC([C@H](O)c4cccc(F)c4)(CC2)N3)cc1 is ___
Response line: 50 to 75%

Prompt line: Fill in: Emax at 10 µM of CC(=O)N[C@H]1CC[C@@H](CNC[C@H](O)c2cncc(F)c2)CC1 is ___
Response line: 25 to 50%

Prompt line: Fill in: Emax at 10 µM of CS(=O)(=O)N[C@H]1CC[C@H](C[C@@H]2CC[C@H]([C@H](O)c3cccc(F)c3)N2)CC1 is ___
Response line: 50 to 75%

Prompt line: Fill in: Emax at 10 µM of CO[C@H]1CC[C@H](C[C@@H]2CC[C@H]([C@@H](O)c3ccccc3F)N2)CC1 is ___
Response line: 25 to 50%

Others:
Prompt line: Fill in: Emax at 10 µM of CC(=O)N[C@H]1CC[C@@H](CC(C)(C)NC[C@H](O)c2cccc(C(F)(F)F)n2)CC1 is ___
Response line: 25 to 50%

Prompt line: Fill in: Emax at 10 µM of CC(C)(CC[C@H]1CC[C@@H](C(=O)O)CC1)NC[C@H](O)c1cncc(F)c1 is ___
Response line: > 75%

Prompt line: Fill in: Emax at 10 µM of CC(=O)N[C@H]1CC[C@H](CCC(C)(C)NC[C@H](O)c2cncc(F)c2)CC1 is ___
Response line: > 75%

====

Catalogue of Emax at 10 µM readings, one per entry.
test system: L6-myotubes; test: Glucose uptake in differentiated L6-myotubes (Biological Example 2); type: cell-based; settings: glucose uptake; compound at 10 μM relative to isoproterenol at 10 μM; read-out: Biological example 2 (GU)

// worked examples, Emax at 10 µM included
Prompt line: Fill in: Emax at 10 µM of CC(C)(C)NC[C@H](O)c1cncc(Cl)c1 is ___
Response line: > 75%

Prompt line: Fill in: Emax at 10 µM of CCC[C@@H]1CCC[C@@H]([C@H](O)c2cccc(F)c2)N1 is ___
Response line: 25 to 50%

Prompt line: Fill in: Emax at 10 µM of O[C@H](c1cccc(F)c1)[C@H]1CCC2(CCCC2)N1 is ___
Response line: 50 to 75%

Prompt line: Fill in: Emax at 10 µM of CCCC(C)NCC(O)c1ccc(O)cc1 (stereo not shown) is ___
Response line: 50 to 75%

Prompt line: Fill in: Emax at 10 µM of CC1(C)CC[C@H]([C@@H](O)c2cncc(O)c2)N1 is ___
Response line: 25 to 50%

Others:
Prompt line: Fill in: Emax at 10 µM of CCCCNC[C@H](O)c1ccnc(N)n1 is ___
Response line: 25 to 50%

Prompt line: Fill in: Emax at 10 µM of CCC[C@@H]1CCC[C@@H]([C@@H](O)c2cccc(O)c2)N1 is ___
Response line: 50 to 75%

Prompt line: Fill in: Emax at 10 µM of CC1(C)CC[C@H]([C@H](O)c2cccc(F)c2)N1 is ___
Response line: > 75%

Prompt line: Fill in: Emax at 10 µM of CC1(C)CCC[C@H]([C@@H](O)c2cccc(Cl)c2)N1 is ___
Response line: 50 to 75%

Prompt line: Fill in: Emax at 10 µM of CCCCNCC(O)c1ccc(O)cc1 (stereo not shown) is ___
Response line: > 75%
